Target: T1, cTnI quality control product recombinant protein (human, UniProt P19429 2-210, limits assumed)
T1 construct: treated as the same molecule; also called cTnI antigen; cardiac troponin I
T1 sequence (P19429 2-210 limits assumed): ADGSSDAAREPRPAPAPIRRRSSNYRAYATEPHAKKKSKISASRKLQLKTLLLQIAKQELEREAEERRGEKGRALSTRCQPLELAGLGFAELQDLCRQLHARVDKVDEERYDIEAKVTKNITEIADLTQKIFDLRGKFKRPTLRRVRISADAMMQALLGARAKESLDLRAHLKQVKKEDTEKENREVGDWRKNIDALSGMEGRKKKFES
Assay: AMC sensor, antibody immobilised, cTnI in solution
Value kind: koff (s⁻¹)
Please give a number only; it is taken to be in s⁻¹.

// below: answered binders
Binder	Quantitative result
Mutation 1-43 (antibody, V domains shown, Built as m8) VH: EVQLQQSGPELVKPGASVKMSCKASGYTFTIYVLHWVKQKPGQGLEWIGYIYPYIDGTKYNEKFKGKATLTVDKSSSTAFMELSSLTSEDSAVYYCARSGYGNYGLAWLAYWGQGTLVTVSA VL: QAVVIQESALTTSPGETVTLTCRSSTGAATTSQYANWVQEKPDHLFTGLIGGSQNRAPGVPARFSGSLIGDKAALTITGAQTEDEAIYFCALVYSNQWVFGGGTKLTVLG	3.38e-05
Mutation 1-4 (antibody, V domains shown, Built as m8) VH: EVQLQQSGPELVKPGASVKMSCKASGYTFTLYVLHWVKQKPGQGLEWIGYIQPYIDGTKYNEKFKGKATLTVDKSSSTAFMELSSLTSEDSAVYYCARSGYGNYGLAWLAYWGQGTLVTVSA VL: QAVVIQESALTTSPGETVTLTCRSSTGAATTSQYANWVQEKPDHLFTGLIGGSNNRAPGVPARFSGSLIGDKAALTITGAQTEDEAIYFCALVYSNNWVFGGGTKLTVLG	0.000232

Moving on to the next binder.
get_value(item= Anti-cTnI-21C5 monoclonal antibody (recombinant) (antibody, mouse IgG2b, V domains shown, also called WT; Sample 1) VH: EVQLQQSGPELVKPGASVKMSCKASGYSFTLYVVHWVKQKPGQGLEWIGYIQPYLDGTRYNEKFKGKATLTVDKSSSTAFMELSSLTSEDSAVYYCARTGYGGYGLAWLAYWGQGTLVTVSA VL: QAVVIQESALTTSPGETVTLTCRSSSGAATTSQYANWVQEKPDHLFTGLIGGSNNRAPGVPARFSGSLIGDKAALTITGAQTEDEAIYFCAIVYSNHWVFGGGTKLTVLG , readout=koff) returns 0.0034
